Data origin: patent EP4786466A1

assay: in vitro; settings: human, mcf10a cells
The following compounds are shown together with reported viability at 1 µM values.
// note: answer is a bare numeric in %

# COMPOUND, ASSAY_METRIC, UNIT_ABBREV, RESULT
data = [
    ("CC(C)(C)OC(=O)N1CCC2(CC1)CN(c1nc(Nc3cc(C4CC4)[nH]n3)c3ccccc3n1)C2", "viability at 1 µM", "%", 104),
    ("CCc1ccccc1C1=CCN(c2nc(Nc3cc(C4CC4)[nH]n3)c3ccccc3n2)CC1", "viability at 1 µM", "%", 115),
    ("Nc1ccc(Nc2nc(Nc3cc(C4CC4)[nH]n3)c3ccccc3n2)cc1", "viability at 1 µM", "%", 34.1),
    ("O=C(Nc1ccccc1)N1CC2CC1CN2c1nc(Nc2cn[nH]c2)c2ccccc2n1 (centres unmarked) [compound 28b]", "viability at 1 µM", "%", 37),
    ("c1ccc2c(Nc3cc(C4CC4)[nH]n3)nc(N3CC4CC3CN4)nc2c1 (centres unmarked)", "viability at 1 µM", "%", 63.4),
]

If you can, please state the reported viability at 1 µM value of CN(C)S(=O)(=O)c1ccc(Nc2nc(Nc3ccccc3)nc3ccccc23)cc1 [compound 25d] . 106

And then CN(C)S(=O)(=O)c1ccc(Nc2nc(Nc3ccc(C(F)(F)F)cc3)nc3ccccc23)cc1 [compound 25c] , what is it? 90

And then "N#Cc1cc(Cl)ccc1C1=CCN(c2nc(Nc3cc(C4CC4)[nH]n3)c3ccccc3n2)CC1" , what is it? 24.9
